Entry source: patent US20250042914A1

# collection of IC50 values tested on human-derived PIKfyve kinase (Homo sapiens (Human))
# Sequence (Q9Y2I7 whole entry): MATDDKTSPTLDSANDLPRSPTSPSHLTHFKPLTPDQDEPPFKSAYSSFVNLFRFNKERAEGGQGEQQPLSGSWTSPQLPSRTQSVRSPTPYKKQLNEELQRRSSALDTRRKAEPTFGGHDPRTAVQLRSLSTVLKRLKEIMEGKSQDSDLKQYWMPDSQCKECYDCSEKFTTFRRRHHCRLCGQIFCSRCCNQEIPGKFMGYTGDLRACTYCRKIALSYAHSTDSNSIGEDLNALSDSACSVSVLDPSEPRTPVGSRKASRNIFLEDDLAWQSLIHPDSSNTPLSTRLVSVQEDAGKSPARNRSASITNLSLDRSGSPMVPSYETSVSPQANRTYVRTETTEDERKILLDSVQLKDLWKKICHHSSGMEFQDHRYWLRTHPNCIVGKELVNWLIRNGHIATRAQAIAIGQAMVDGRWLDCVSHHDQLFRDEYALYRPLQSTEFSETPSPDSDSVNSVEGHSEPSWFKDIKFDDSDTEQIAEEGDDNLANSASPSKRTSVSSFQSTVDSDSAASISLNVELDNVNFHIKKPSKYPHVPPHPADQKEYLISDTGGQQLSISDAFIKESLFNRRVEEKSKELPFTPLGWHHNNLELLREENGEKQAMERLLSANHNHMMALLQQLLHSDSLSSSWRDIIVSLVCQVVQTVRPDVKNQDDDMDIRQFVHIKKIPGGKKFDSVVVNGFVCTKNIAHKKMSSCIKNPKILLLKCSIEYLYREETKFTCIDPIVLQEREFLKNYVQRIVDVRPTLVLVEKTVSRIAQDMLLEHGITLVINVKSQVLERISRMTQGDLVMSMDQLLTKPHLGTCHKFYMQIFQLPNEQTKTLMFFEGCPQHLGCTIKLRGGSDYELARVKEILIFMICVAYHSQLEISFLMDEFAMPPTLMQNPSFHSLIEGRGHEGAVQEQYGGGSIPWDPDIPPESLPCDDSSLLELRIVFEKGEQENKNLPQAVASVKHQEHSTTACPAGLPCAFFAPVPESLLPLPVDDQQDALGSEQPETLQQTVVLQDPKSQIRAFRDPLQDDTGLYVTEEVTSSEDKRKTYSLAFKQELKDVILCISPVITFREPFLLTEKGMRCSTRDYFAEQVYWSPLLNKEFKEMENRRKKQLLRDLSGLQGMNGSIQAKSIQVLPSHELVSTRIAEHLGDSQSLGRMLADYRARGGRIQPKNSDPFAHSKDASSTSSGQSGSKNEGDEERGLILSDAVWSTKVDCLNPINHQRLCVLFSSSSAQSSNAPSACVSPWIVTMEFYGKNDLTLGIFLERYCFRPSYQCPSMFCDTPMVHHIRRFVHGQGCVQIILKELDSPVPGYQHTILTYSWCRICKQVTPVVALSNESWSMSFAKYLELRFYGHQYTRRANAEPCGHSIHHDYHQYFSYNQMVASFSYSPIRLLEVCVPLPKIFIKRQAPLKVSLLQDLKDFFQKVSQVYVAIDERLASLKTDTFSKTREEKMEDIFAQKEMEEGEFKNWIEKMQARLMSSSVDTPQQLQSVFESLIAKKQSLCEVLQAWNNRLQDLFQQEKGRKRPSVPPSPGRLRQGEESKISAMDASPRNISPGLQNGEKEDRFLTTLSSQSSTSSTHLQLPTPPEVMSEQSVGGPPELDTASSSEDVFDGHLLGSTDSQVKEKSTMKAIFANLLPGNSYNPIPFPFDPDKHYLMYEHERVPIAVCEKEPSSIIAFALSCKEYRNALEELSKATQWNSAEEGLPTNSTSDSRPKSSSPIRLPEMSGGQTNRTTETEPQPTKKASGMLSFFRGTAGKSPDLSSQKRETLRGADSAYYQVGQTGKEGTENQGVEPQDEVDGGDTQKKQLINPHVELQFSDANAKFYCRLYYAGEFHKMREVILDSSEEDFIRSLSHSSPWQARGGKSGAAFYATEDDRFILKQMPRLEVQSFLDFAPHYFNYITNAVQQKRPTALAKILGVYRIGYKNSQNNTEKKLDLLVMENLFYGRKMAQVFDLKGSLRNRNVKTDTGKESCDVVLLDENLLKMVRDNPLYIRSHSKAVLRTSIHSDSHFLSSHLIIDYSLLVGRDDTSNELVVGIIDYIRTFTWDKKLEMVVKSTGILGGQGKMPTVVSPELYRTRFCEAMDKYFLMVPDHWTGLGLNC
Structures can show the parent of a compound that is named as a salt.

Example entries begin here.
Prompt: Name the reported IC50 value associated with the compound `Cc1ncoc1C(=O)Nc1cccc(-c2nc(N3CCOCC3)c3sc(-c4cccnc4)cc3n2)c1`
Response: ≤ 50 nM

Prompt: Name the reported IC50 value associated with the compound `O=C(Nc1cccc(-c2nc(N3CCOCC3)c3sc(-c4cccnc4)cc3n2)c1)c1ccncc1`
Response: ≤ 50 nM

Prompt: Name the reported IC50 value associated with the compound `Cc1nc(C)c(C(=O)Nc2cccc(-c3nc(N4CCOCC4)c4sc(-c5cccnc5)cc4n3)c2)s1`
Response: 50 to 100 nM

Prompt: Name the reported IC50 value associated with the compound `O=C(Nc1cccc(-c2nc(N3CCOCC3)c3sc(-c4ccnc5[nH]ncc45)cc3n2)c1)c1cccnc1`
Response: 50 to 100 nM

Next:
Prompt: Name the reported IC50 value associated with the compound Nc1ccc(-c2cc3nc(-c4cccc(NC(=O)c5cccnc5)c4)nc(N4CCOCC4)c3s2)cc1 [Example 6, hydrochloride]
Response: ≤ 50 nM

Prompt: Name the reported IC50 value associated with the compound `O=C(Nc1cccc(-c2nc(N3CCOCC3)c3sc(-c4cccnc4)cc3n2)c1)C1CCN(CCO)CC1`
Response: 50 to 100 nM

Prompt: Name the reported IC50 value associated with the compound `CC(=O)N1CCC(C(=O)Nc2cccc(-c3nc(N4CCOCC4)c4sc(-c5cccnc5)cc4n3)c2)CC1`
Response: > 100 nM
